target_or_system: Recombinant human TDO comprising amino acids 19-407 (Homo sapiens)
Construct: Recombinant human TDO comprising amino acids 19-407 with a N-terminal hexahistidine tag; hexahistidine (His6) (N); made in house; host or cells: E. coli
method: TDO2 enzymatic assay (NFK quantified by LCMS)
Format: biochemical
details: 15 nM enzyme, 200 μM L-tryptophan, pH7, 30 minutes pre-incubation at RT; mean values when measured multiple times; read-out: hTDO activity (IC50 in nM)
Let's look at some compounds and their measured IC50.
test_readout: IC50

compound	test_readout	observed_measurement
C=C(C)c1sc2cncn2c1C(O)c1cn(-c2ccc(OCCCO)c(Cl)c2)nn1 (racemic) [Example 301]	IC50	> 10200 nM
COc1ccc(-n2cc(C(O)c3c(C4CC4)sc4cncn34)nn2)cc1 (racemic) [Example 9]	IC50	> 10200 nM
OC(c1cn(-c2ccccn2)nn1)c1c(C2CC2)sc2cncn12 (racemic) [Example 14]	IC50	> 10200 nM
OC(c1cn(-c2ccc(OCCOCC(F)(F)F)cc2)nn1)c1c(C2CC2)sc2cncn12 (racemic) [Example 312]	IC50	> 10200 nM
CCc1sc2cncn2c1C(O)c1cn(-c2ccc(OCC3(F)COC3)c(Cl)c2)nn1 (racemic) [Example 317]	IC50	> 10200 nM
Oc1ccc(-n2cc(C(O)c3c(-c4ccccc4)sc4cncn34)nn2)cc1Cl (racemic) [Example 264]	IC50	5890 nM
OC(c1cn(-c2cncc3ccccc23)nn1)c1c(C2CC2)sc2cncn12 (racemic) [Example 26]	IC50	4190 nM
O[C@@H](c1cn(-c2ccccc2)nn1)c1c(C2CC2)sc2cncn12 [Example 2a]	IC50	> 10200 nM
O=C(Nc1ccc(-n2cc(C(O)c3c(C4CC4)sc4cncn34)nn2)cc1)c1ccccc1 (racemic) [Example 189]	IC50	> 10200 nM

----------
Parameter: IC50. Scope: all listed entries.
target_or_system: Recombinant human TDO comprising amino acids 19-407 (Homo sapiens, UniProt P48775)
Construct: Recombinant human TDO comprising amino acids 19-407 with a N-terminal hexahistidine tag; hexahistidine (His6) (N); made in house; host or cells: E. coli
Sequence (P48775 19-406 limits assumed): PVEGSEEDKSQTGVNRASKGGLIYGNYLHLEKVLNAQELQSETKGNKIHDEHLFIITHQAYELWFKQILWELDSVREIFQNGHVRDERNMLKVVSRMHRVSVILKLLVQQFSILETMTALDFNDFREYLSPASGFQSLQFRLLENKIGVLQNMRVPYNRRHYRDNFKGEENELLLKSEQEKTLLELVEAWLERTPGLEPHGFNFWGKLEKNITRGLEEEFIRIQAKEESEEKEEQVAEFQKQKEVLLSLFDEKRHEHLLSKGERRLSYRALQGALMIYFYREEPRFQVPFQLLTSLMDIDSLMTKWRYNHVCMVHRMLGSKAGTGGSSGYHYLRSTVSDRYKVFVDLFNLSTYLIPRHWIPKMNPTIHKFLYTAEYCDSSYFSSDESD
method: TDO2 enzymatic assay (NFK quantified by LCMS)
Assay type: biochemical
details: 15 nM enzyme, 200 μM L-tryptophan, pH7, 30 minutes pre-incubation at RT; mean values when measured multiple times; read-out: hTDO activity (IC50 in nM)

compound	IC50
Oc1ccc(-n2cc(C(O)c3c([C@@H]4C[C@@H]4F)sc4cncn34)nn2)cc1Cl (relative stereo)	> 10200 nM
NC(=O)c1ccc(-n2cc(C(O)c3c(C4CC4)sc4cncn34)nn2)cc1 (racemic)	> 10200 nM
N#Cc1ccc(-n2cc(C(O)c3c(C4CC4)sc4cncn34)nn2)cc1O (racemic)	> 10200 nM
CCc1sc2cncn2c1C(O)c1cn(-c2ccc(N3CCOCC3)cc2)nn1 (racemic)	> 10200 nM
COc1ccc(-n2nnc(C(O)c3c(C4CC4)sc4cncn34)c2C(C)(C)C)cc1 (racemic)	> 10200 nM
CN1CCCC(COc2ccc(-n3cc(C(O)c4c(C5CC5)sc5cncn45)nn3)cc2)C1 (stereo not shown)	> 10200 nM
Oc1ccc(-n2cc(C(O)c3c(C4CC4)sc4cncn34)nn2)c(F)c1 (racemic)	6400 nM
COc1cc(C#N)cc(-n2cc(C(O)c3c(C4CC4)sc4cncn34)nn2)c1 (racemic)	> 10200 nM
COc1ccc(-n2nnc(C(O)c3c([C@@H]4C[C@H]4F)sc4cncn34)c2F)cc1 (relative stereo)	> 10200 nM
CCc1sc2cncn2c1C(O)c1cn(-c2ccc3[nH]ccc3c2)nn1 (racemic)	1970 nM
O=C(NCCCO)c1ccc(-n2cc(C(O)c3c(C4CC4)sc4cncn34)nn2)cc1 (racemic)	> 10200 nM
O[C@@H](c1cn(-c2ccc(OCC3(F)COC3)c(Cl)c2)nn1)c1c(C2CC2)sc2cncn12	> 10200 nM
CN(C)S(=O)(=O)c1ccc(-n2cc(C(O)c3c(C4CC4)sc4cncn34)nn2)cc1 (racemic)	> 10200 nM
COc1ccc(-n2cc(C(O)c3c(C4CC4)sc4cncn34)cn2)cc1 (racemic)	3570 nM
Oc1ccc(-n2cc(C(O)c3c(C4CC4)sc4cncn34)nn2)c(OC(F)(F)F)c1 (racemic)	2620 nM
N#CCCNC(=O)c1ccc(-n2cc(C(O)c3c(C4CC4)sc4cncn34)nn2)cc1 (racemic)	> 10200 nM
Oc1cc(F)c(-n2cc(C(O)c3c(C4CC4)sc4cncn34)nn2)cc1F (racemic)	7180 nM
CCc1sc2cncn2c1C(O)c1cn(-c2ccc(N)c(Cl)c2)nn1 (racemic)	3840 nM
OC(c1cn(-c2cccc3cnccc23)nn1)c1c(C2CC2)sc2cncn12 (racemic)	> 10200 nM
COc1ccc(-n2nnc(C(O)c3c(C)sc4cncn34)c2C)cc1 (racemic)	6940 nM
COc1ccc(-n2cc(C(O)c3c(C)sc4cncn34)nn2)cc1 (racemic)	> 10200 nM
CCc1sc2cncn2c1C(O)c1cn(-c2ccc(S(N)(=O)=O)cc2)nn1 (racemic)	7480 nM
CCc1sc2cncn2c1C(O)c1cn(-c2ccc(C(=O)NC3CC3)cc2)nn1 (racemic)	8710 nM
Cc1cccc(-n2cc(C(O)c3c(C4CC4)sc4cncn34)nn2)c1 (racemic)	> 10200 nM
COc1ccc(-n2nnc(C(O)c3c(C4CC4)sc4cncn34)c2F)cc1 (racemic)	> 10200 nM
